// provenance: PubChem BioAssay (NCI)

System: NCI-H226 lung
assay_name: NCI-60 one-dose screen, 48 h (100 = growth as untreated, 0 = no growth, -100 = all killed)
experimental_context: 10 µM unless noted
About 83,000 compounds went through this panel and 20% of them were active in at least one assay; those are over-represented in the sample as a whole.
measured_parameter: growth (%)
Unit % implied. Number only.

Check out these entries, answers already filled in.
| compound_smiles | tgt | growth [%] |
| --- | --- | --- |
| COc1ccc(Cn2cc3c(c2-c2ccc(OC)cc2)CCc2cnoc2-3)cc1 | NCI-H226 lung | 9.5 |
| CC(=O)c1cc(Nc2cc(C)nc(N)n2)cc(C(C)=O)c1 | NCI-H226 lung | 101 |

# growth measured on NCI-H226 lung for item CN(CCC#N)c1ccc(/C=C(\C#N)c2cccc(C(F)(F)F)c2)cc1 = 65.7
